Just for reference, patent US7217704B2 is where these values come from.

tgt: LPA2 (Homo sapiens)
Construct: expressed in transfected cells
assay.text: Ca2+ transients (agonism / inhibition of LPA response) in RH7777 cells stably expressing LPA2
Assay type: cell-based
run.conditions: RH7777; maximal efficacy of the drug/maximal efficacy of LPA 18:1; read-out: LPA2 (Emax)
quantity.measured: Emax (%)
Expressed in %, but write only the number.

CCCCC=CCCCCCCCCOP(=O)(O)O
58
CCCCCCCCCCCCCCC(F)(F)P(=O)(O)O
40
C=CCCCCCCCCOP(=O)(O)O
100

Let us examine a further case.
Note to self: Emax of CCC=CCCCCCCCCCCOP(=O)(O)O with LPA2 (Homo sapiens) was 75

###

tgt: LPA3 (Homo sapiens, UniProt Q9UBY5)
Construct: expressed in transfected cells
Sequence (Q9UBY5 1-353): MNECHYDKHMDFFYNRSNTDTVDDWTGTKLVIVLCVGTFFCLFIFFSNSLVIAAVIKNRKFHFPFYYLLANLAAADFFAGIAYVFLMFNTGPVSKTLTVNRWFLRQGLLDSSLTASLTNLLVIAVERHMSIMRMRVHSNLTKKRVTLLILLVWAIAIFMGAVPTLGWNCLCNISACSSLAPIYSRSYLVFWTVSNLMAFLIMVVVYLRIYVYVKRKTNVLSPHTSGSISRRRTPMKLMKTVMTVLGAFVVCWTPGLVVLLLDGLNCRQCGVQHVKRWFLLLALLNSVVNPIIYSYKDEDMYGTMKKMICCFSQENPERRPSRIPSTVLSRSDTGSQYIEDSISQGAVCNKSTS
assay.text: Ca2+ transients (agonism / inhibition of LPA response) in RH7777 cells stably expressing LPA3
Format: cell-based
run.conditions: inhibition of LPA-induced Ca2+ transients, RH7777 cells expressing LPA3; read-out: LPA3 (Ki)
Experimental: The culture medium (DMEM containing 10% FBS) was then replaced with modified Krebs solution (120 mM NaCl, 5 mM KCl, 0.62 mM MgSO4, 1.8 mM CaCl2, 10 mM HEPES, 6 mM glucose, pH 7.4) and the cells were serum starved for 6–8 hours (12 h for PC-3 cells). […] Changes in intracellular Ca^2+ concentration were monitored by measuring the ratio of emitted light intensity at 520 nm in response to excitation by 340 nm and 380 nm wavelength lights, respectively. Each well was monitored for 80–120 seconds. […]
Please map values of Ki to classes as shown: range 1 = under 60 nM, range 2 = from 60 nM up to 300 nM, range 3 = 300 nM and over

Example entries and their recorded answers appear below.
CCCCCCCCCCCCOP(O)(O)=S
range 1
CCCCCCCC/C=C\CCCCCCCC(=O)N[C@@H](COP(=O)(O)O)Cc1ccc(OCc2ccccc2)cc1 [VPC12249, reference compound]
range 3

Request: State the band of CCCCCCCCCCCCCCOP(O)(O)=S
Result: range 2

Request: Just checking, what class would you give Cc1noc(-c2ccc(CSCCC(=O)O)cc2)c1NC(=O)OC(C)c1ccccc1Cl (stereo not drawn) [Ki16425, reference compound] here?
Result: range 2

Request: Which bin should I file CCCCCCCCCCCCCCC(F)(F)P(=O)(O)O under?
Result: range 3

Request: Which class does CCCCCCCC(=O)OC[C@H](COP(=O)(O)OP(=O)(O)O)OC(=O)CCCCCCC [DGPP, reference compound] fall in?
Result: range 2

Request: Would you mind sorting CCCCCCCCCCP(=O)(O)O [Compound 9a, n-decyl-phosphonate] into the appropriate category?
Result: range 2

###

tgt: LPA2 (Homo sapiens, UniProt Q9HBW0)
Construct: expressed in transfected cells
Sequence (Q9HBW0 whole entry): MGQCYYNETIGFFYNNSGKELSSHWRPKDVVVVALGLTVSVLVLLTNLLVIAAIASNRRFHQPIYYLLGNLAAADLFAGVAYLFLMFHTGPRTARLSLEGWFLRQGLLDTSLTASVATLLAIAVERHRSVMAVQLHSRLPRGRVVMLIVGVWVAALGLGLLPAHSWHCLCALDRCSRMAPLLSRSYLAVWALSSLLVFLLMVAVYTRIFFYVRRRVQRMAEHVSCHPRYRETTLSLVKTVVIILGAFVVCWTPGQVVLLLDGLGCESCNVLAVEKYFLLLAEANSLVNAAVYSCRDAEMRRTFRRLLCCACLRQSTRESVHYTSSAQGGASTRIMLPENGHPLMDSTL
assay.text: Ca2+ transients (agonism / inhibition of LPA response) in RH7777 cells stably expressing LPA2
Type: cell-based
run.conditions: RH7777 cells expressing LPA2; read-out: LPA2 EC50
quantity.measured: EC50 (µM)
Field format: number, assumed µM, no unit text.

Noted for CCCCCCCCCCCCCCC(F)(F)P(=O)(O)O : its EC50 reads 10

###

tgt: LPA1 (Homo sapiens, UniProt Q92633)
Construct: expressed in transfected cells
Sequence (Q92633 whole entry): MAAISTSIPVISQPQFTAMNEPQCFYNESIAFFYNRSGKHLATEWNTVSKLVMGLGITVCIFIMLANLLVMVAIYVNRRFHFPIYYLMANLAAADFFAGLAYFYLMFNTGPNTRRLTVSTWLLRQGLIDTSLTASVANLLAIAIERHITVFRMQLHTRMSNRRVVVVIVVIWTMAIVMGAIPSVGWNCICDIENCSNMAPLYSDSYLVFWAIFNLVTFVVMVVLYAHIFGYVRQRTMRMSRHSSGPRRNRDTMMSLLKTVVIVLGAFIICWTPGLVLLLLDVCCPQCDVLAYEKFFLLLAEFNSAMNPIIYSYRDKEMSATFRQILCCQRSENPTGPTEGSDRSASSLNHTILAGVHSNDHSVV
assay.text: Ca2+ transients (agonism / inhibition of LPA response) in RH7777 cells stably expressing LPA1
Type: cell-based
run.conditions: RH7777 cells expressing LPA1
quantity.measured: Ki
Please answer using the number first and the unit second.

Short answer on LPA1 (Homo sapiens, UniProt Q92633) for CCCCCCCC(=O)OC[C@H](COP(=O)(O)OP(=O)(O)O)OC(=O)CCCCCCC [DGPP, reference compound] , Ki: 4.3 µM

###

tgt: LPA2 (Homo sapiens, UniProt Q9HBW0)
Construct: expressed in transfected cells
assay.text: Ca2+ transients (agonism / inhibition of LPA response) in RH7777 cells stably expressing LPA2
Assay type: cell-based
run.conditions: inhibition of LPA-induced Ca2+ transients, RH7777 cells expressing LPA2; read-out: LPA2 IC50
quantity.measured: IC50

get_value(item= C=CCCCCCCCCOP(=O)(O)O [Compound 5a, Phosphoric acid monodec-9-enyl ester] , readout=IC50) returns > 30 µM

Query CCCCCCCC(=O)OC[C@H](COP(=O)(O)OP(=O)(O)O)OC(=O)CCCCCCC [DGPP, reference compound] yields IC50 of > 30 µM

###

tgt: LPA3 (Homo sapiens)
Construct: expressed in transfected cells
assay.text: Ca2+ transients (agonism / inhibition of LPA response) in RH7777 cells stably expressing LPA3
Assay type: cell-based
pEC50: −log10 of the molar value.
Listing of entries alongside the reported pEC50.

Worked set:
CCCCCC=CCCCOP(=O)(O)O
< 4.52
CCCCCCCCCCOP(O)(O)=S
< 4.52
CCCCCCCCCCCCCCOP(O)(O)=S
< 4.52

Record for CCCCCCCCC=CCCCCCCCCOP(O)(O)=S under target or system LPA3 (Homo sapiens): pEC50 reported as 6.26

###

tgt: LPA2 (Homo sapiens, UniProt Q9HBW0)
Construct: expressed in transfected cells
assay.text: Ca2+ transients (agonism / inhibition of LPA response) in RH7777 cells stably expressing LPA2
Type: cell-based
run.conditions: inhibition of LPA-induced Ca2+ transients, RH7777 cells expressing LPA2
quantity.measured: Ki (µM)
Quick note: give the figure in µM, leave out the unit.

Recorded Ki (molecule CCCCCCCCCCCCCCP(=O)(O)O [Compound 9c, n-tetradecyl-phosphonate] ): 3.55

###

tgt: LPA2 (Homo sapiens, UniProt Q9HBW0)
Construct: expressed in transfected cells
assay.text: Ca2+ transients (agonism / inhibition of LPA response) in RH7777 cells stably expressing LPA2
Type: cell-based
run.conditions: induction of Ca2+ transients, RH7777 cells expressing LPA2; read-out: LPA2 EC50
pEC50: −log10 of the molar value.
quantity.measured: pEC50

pEC50 recorded for this compound, CCCCCCCCCCCCP(=O)(O)O [Compound 9b, n-dodecyl-phosphonate] , is < 4.52

The recorded pEC50 for CCCCC=CCCCCCCCCOP(=O)(O)O is 6.40

###

Test system: PC-3 cells
assay.text: Ca2+ transients in PC-3 cells endogenously expressing LPA1-3
Type: cell-based, human
run.conditions: Homo sapiens, PC-3, read-out: PC-3 IC50
Listing: pIC50 of selected compounds
When answering, recall that pIC50 equals minus log10 of the concentration in mol/L, and write that number alone.

Worked cases, pIC50 given:
CCC=CCCCCCCCCOP(O)(O)=S [Compound 8e, Thiophosphoric acid O-dodec-9-enyl ester]
5.53
CCCCCCCCCCCCOP(O)(O)=S [Compound 8b, Thiophosphoric acid O-dodecyl ester]
5.55
C=CCCCCCCCCOP(O)(O)=S [Compound 8d, Thiophosphoric acid O-dec-9-enyl ester]
6.00
CCCCCCCCCCOP(O)(O)=S [Compound 8a, Thiophosphoric acid O-decyl ester]
5.91

The reported pIC50 of the compound CCCCC=CCCCCCCCCOP(O)(O)=S [Compound 8f] was 6.03

###

tgt: LPA3 (Homo sapiens, UniProt Q9UBY5)
Construct: expressed in transfected cells
Sequence (Q9UBY5 1-353): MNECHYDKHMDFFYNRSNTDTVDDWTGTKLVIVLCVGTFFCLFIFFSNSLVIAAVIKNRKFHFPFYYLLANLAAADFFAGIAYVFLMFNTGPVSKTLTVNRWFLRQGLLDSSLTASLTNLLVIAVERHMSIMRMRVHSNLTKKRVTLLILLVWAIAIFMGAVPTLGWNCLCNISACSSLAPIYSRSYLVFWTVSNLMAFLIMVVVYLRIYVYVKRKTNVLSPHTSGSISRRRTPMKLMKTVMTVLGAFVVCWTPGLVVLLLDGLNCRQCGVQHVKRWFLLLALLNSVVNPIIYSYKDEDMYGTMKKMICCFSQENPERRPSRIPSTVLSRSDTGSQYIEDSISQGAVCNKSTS
assay.text: Ca2+ transients (agonism / inhibition of LPA response) in RH7777 cells stably expressing LPA3
Format: cell-based
Measured IC50, listed per entry for reference.
Lab book: enter the figure in nM, no units written.

Example results:
CCCCCC=CCCCOP(=O)(O)O
830
CCCCC=CCCCCCCCCOP(O)(O)=S
28

Now, please, on to the next molecule.
Reported IC50 ( CCC=CCCCCCCCCOP(O)(O)=S ) = 27
